system: U138-MG human glioma cell; assay: Cell proliferation analysis (MTT); type: cell-based; settings: Homo sapiens, 48 h, 10 µM, two days, MTT
Threshold rule: activity at 10 µM greater than or equal to 70% is Satisfied; below that, Not satisfied.

The examples below pair each entry with its known result.
# molecule, category
measured = [
    ("O=C(COc1ccc2c(c1)CCC(=O)N2)Nc1ccc(F)c(Cl)c1", "Satisfied"),
    ("Cc1ccc(F)cc1NC(=O)Oc1ccc2c(c1)CCC(=O)N2", "Satisfied"),
    ("O=C1CCc2cc(OCC3CC(c4c(F)cccc4Cl)=NO3)ccc2N1 (stereo not shown)", "Satisfied"),
    ("CCCCCCn1cc(COc2ccc3c(c2)CCC(=O)N3)nn1", "Satisfied"),
    ("CCOC(=O)CN1C(=O)CCc2cc(OCCCCc3nnnn3C3CCCCC3)ccc21", "Not satisfied"),
    ("C=CCOC(=O)N1C(=O)CCc2cc(OCCCCc3nnnn3C3CCCCC3)ccc21", "Satisfied"),
    ("C=CC(=O)Oc1ccc2c(c1)CCC(=O)N2", "Satisfied"),
]

Now let's try a different one.
Incoming: activity at 10 µM >= 70% for O=C(OCCCCOc1ccc2c(c1)CCC(=O)N2CCCCOC(=O)c1ccccc1)c1ccccc1 [TR-G013A] ?
Outgoing: Not satisfied

----------
tested on: U138-MG human glioma cell; test: Cell proliferation analysis (MTT); assay type: cell-based; conditions: Homo sapiens, 48 h, 10 µM, two days, MTT
Recorded inhibition at 10 µM, one value per entry.

# smiles, system name, inhibition at 10 µM
records = [
    ("O=C1CCc2cc(OC(=O)c3cc(C(F)(F)F)ccc3F)ccc2N1", "U138-MG human glioma cell", "19%"),
    ("COc1ccc(S(=O)(=O)Oc2ccc3c(c2)CCC(=O)N3)cc1OC", "U138-MG human glioma cell", "29%"),
    ("O=C(COc1ccc2c(c1)CCC(=O)N2)N/N=C/c1cnc(-c2ccc(Cl)cc2)nc1", "U138-MG human glioma cell", "62%"),
    ("O=C(COc1ccc2c(c1)CCC(=O)N2)Nc1ccc([N+](=O)[O-])cn1", "U138-MG human glioma cell", "11%"),
    ("O=C1CCc2cc(OS(=O)(=O)c3ccc(Br)cc3)ccc2N1", "U138-MG human glioma cell", "39%"),
    ("O=C1CCc2cc(OC(=O)c3cccc([N+](=O)[O-])c3)ccc2N1", "U138-MG human glioma cell", "-8%"),
]

Measured inhibition at 10 µM of COc1ccccc1NC(=O)Oc1ccc2c(c1)CCC(=O)N2 : 27%

Measured inhibition at 10 µM of O=C1CCc2cc(OCCCCc3nnnn3C3CCCCC3)ccc2N1Cc1ccc(F)cc1 : 58%

Measured inhibition at 10 µM of O=C(COc1ccc2c(c1)CCC(=O)N2)Nc1ccc2ncccc2c1 : 33%

Measured inhibition at 10 µM of C=CCCCOc1ccc2c(c1)CCC(=O)N2 : 30%

Measured inhibition at 10 µM of O=C1CCc2cc(OCc3cn(Cc4ccc(F)cc4)nn3)ccc2N1 : 21%

Measured inhibition at 10 µM of CCOC(=O)CCn1cc(COc2ccc3c(c2)CCC(=O)N3)nn1 : -12%

----------
System: U138-MG human glioma cell
Test: Cell proliferation analysis (MTT)
Assay type: cell-based
Settings: Homo sapiens, 48 h, 10 µM, two days, MTT
Description: U87-MG and U138-MG human glioma cell, were incubated with 10% fetal bovine serum (FBS) (Gibco, 10500-064), 1% L-glutamine (Gibco, 25030-024), in a humidified incubator with 5% CO2 at 37 °C. […] The cytotoxic effects of the target compounds on U87-MG and U138-MG cell lines were assessed using the MTT (Thiazolyl Blue Tetrazolium Bromide) method. […] Cell proliferation was analysed by measuring the absorbance of dissolved formazan at a wavelength of 570 nm. […]
result type: inhibition at 10 µM (%)
Output spec: scalar in %, unitless text.

Measured inhibition at 10 µM of O=C1CCc2cc(OCCBr)ccc2N1 : 18

Measured inhibition at 10 µM of CN1CCN(c2ccc(NC(=O)COc3ccc4c(c3)CCC(=O)N4)cc2)CC1 : 26
